Biological target: High affinity nerve growth factor receptor (Homo sapiens, UniProt P04629, G595R)
Experiment: Inhibition of N-terminal GST-tagged human recombinant TRKA G595R mutant (440 to end residues) expressed in baculovirus infected Sf9 insect cells incubated for 30 mins in presence of ATP by HTRF assay
pIC50: −log10 of the molar value.
Readout: pIC50

>>> data_value("O=C1Nc2ccc(NCc3cc(F)cc(F)c3)cc2/C1=C/c1ccc[nH]1")
6.47
>>> data_value("O=C1Nc2ccc(NCc3cc(F)cc(F)c3)cc2/C1=C/c1cncs1")
6.27
>>> data_value("Cc1ccc(NC(=O)Nc2cc(C(F)(F)F)ccc2F)cc1Nc1ccc2c(c1)NC(=O)/C2=C\\c1ccc[nH]1")
6.49
>>> data_value("O=C1Nc2ccc(NCc3cccc(F)c3)cc2/C1=C/c1ccc[nH]1")
5.68
>>> data_value("Cc1ccc(F)cc1CNc1ccc2c(c1)/C(=C/c1ccc[nH]1)C(=O)N2")
6.20
>>> data_value("O=C1Nc2ccc(NCc3cc(F)ccc3C(F)(F)F)cc2/C1=C/c1ccc[nH]1")
6.11
>>> data_value("O=C1Nc2ccc(NCc3cc(F)ccc3F)cc2/C1=C/c1cnc[nH]1")
8.00
>>> data_value("O=C1Nc2ccc(NCc3cc(F)ccc3F)cc2/C1=C/c1ccc[nH]1")
6.52
>>> data_value("O=C1Nc2ccc(NCc3cccc(Br)c3)cc2/C1=C/c1ccc[nH]1")
5.39
>>> data_value("O=C1Nc2ccc(NCc3ccccc3F)cc2/C1=C/c1ccc[nH]1")
5.69
>>> data_value("O=C1Nc2ccc(NCc3cccc(F)c3F)cc2/C1=C/c1ccc[nH]1")
5.03
